Molecular target: T1, human insulin receptor (HIR) (human, UniProt P06213-2 28-1370, limits assumed)
T1 construct: Also used for the WGA-purified recombinant human insulin receptor of the kinase assay
T1 sequence (P06213 other isoform, or with tags, fused parts or gaps limits assumed): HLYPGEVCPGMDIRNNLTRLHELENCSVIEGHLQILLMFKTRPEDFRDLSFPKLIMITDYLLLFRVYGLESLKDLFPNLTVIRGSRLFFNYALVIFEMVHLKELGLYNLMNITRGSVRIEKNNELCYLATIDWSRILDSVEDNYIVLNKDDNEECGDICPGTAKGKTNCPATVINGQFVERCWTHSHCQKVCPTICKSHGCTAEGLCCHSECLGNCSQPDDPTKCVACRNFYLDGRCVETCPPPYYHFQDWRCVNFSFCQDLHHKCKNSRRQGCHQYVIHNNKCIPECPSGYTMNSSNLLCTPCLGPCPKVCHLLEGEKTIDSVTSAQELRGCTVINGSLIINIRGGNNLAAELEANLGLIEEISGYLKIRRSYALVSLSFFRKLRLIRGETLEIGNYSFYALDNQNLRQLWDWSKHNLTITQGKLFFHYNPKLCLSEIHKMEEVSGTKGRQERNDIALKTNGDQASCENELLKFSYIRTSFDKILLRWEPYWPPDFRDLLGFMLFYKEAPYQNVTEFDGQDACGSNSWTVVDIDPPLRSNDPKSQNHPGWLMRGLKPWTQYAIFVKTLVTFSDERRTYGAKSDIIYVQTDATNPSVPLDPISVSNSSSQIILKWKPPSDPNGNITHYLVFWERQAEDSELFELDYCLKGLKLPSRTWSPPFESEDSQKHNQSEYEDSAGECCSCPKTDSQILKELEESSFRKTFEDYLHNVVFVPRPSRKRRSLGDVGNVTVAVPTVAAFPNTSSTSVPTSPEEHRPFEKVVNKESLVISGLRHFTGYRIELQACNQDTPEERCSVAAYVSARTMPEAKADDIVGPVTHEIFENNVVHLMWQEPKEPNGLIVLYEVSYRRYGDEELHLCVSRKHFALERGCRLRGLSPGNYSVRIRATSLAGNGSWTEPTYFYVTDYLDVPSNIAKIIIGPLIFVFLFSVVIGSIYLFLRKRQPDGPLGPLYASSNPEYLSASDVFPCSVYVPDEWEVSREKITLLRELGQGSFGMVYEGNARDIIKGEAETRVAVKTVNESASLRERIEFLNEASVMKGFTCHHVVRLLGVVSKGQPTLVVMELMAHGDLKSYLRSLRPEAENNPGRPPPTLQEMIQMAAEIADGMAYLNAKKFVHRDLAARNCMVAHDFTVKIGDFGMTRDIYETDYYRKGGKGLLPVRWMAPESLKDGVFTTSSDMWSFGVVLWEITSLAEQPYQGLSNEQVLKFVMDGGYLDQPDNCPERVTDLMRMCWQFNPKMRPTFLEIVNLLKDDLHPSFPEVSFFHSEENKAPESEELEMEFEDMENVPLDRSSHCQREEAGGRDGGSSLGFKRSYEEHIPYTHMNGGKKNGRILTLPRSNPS
Assay: 125I-insulin competition on purified HIR
Positions of bridges follow the written chain, without caps; N, C: chain ends. Chains are numbered I, II in the order given. No end group written: not given here.

# binder, Kd [nM]
data = [
    ("S433 (also: C-terminus of chain 2 linked to Lys16 of chain 1, bond at chain A 16 to a chain's C-terminus) peptide 1: ESFYDWFERQLGGGGK peptide 2: WLDQEWAWVQ", 110),
    ("S441 (not fully specified (bridges); cysteine pairing not given here; also: C-terminus of chain 2 linked to Lys16 of chain 1, bond at chain A 16 to a chain's C-terminus) peptide 1: ESFYDWFERQLGGGGK peptide 2: WAWVQCEVYGRGCPS", 120),
    ("S442 (disulfide II:5-II:12 (inferred); also: bond at chain A 16 to a chain's C-terminus) peptide 1: ESFYDWFERQLGGGGK peptide 2: AWVQCEVYGRGCPS", 160),
    ("S423 (not fully specified (bridges); cysteine pairing not given here; also: C-terminus of chain 2 linked to Lys13 of chain 1, bond at chain A 13 to a chain's C-terminus) peptide 1: ESFYDWFERQLGK peptide 2: ACAWPTYWNCG", 62),
    ("LDQEWAVQCEVYGRGCPSESFYDWFERQLG [S484]", 87),
    ("S440 (not fully specified (bridges); cysteine pairing not given here; also: C-terminus of chain 2 linked to Lys16 of chain 1, bond at chain A 16 to a chain's C-terminus) peptide 1: ESFYDWFERQLGGGGK peptide 2: EWAWVQCEVYGRGCPS", 99),
]
